target under test: α7-subtype of nicotinic receptors (Rattus norvegicus, UniProt Q05941)
Sequence (Q05941 23-502): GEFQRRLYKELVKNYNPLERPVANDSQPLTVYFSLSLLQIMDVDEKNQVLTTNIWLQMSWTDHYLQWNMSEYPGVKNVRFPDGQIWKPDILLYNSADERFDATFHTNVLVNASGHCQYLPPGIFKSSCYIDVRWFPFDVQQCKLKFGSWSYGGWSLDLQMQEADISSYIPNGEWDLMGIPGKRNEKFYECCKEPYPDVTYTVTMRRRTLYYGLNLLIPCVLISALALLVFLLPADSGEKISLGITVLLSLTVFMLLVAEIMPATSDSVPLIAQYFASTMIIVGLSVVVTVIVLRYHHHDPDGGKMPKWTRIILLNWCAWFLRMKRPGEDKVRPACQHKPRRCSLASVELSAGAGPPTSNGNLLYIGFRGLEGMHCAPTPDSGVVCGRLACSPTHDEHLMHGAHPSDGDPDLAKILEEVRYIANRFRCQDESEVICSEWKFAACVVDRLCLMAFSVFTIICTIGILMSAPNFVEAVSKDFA
pIC50: −log10 of the molar value.
Quick rule: pIC50 of at least 8 means true (1), below that means false (0).

- CCn1ccc2ccc(-c3nnc(N4CCN5CCC4CC5)o3)cc21 [Compound A5]: true (1)
- CC(C)n1ccc2ccc(-c3nnc(N4CCN5CCC4CC5)o3)cc21 [Compound A4]: false (0)
- FCCn1ccc2ccc(-c3nnc(N4CCN5CCC4CC5)o3)cc21 [Compound A2]: true (1)
